assay: Binding affinity constant against KDO 8-P synthase
measurement-kind: Ki (µM)

* CCCC/N=C(\S)C(O)C(O)C(O)C(O)CO (stereo unspecified) | 2300
